- System: Saccharomyces cerevisiae
- experiment notes: protein stability index of tFT-peptide fusion (C-terminal peptide) (PSI (0-1 scale)); higher = more stable (slower turnover)
- test parameters: genetic background: doa10 deletion; temperature: 30 C
Recorded protein stability index by entry

sequence input	protein stability index
NRFRLFRLNFSV	0.161
FMCCFWFFWLGF	0.451
VVPVGLYSVILV	0.289
SLRSLYLLARLS	0.076
SASPFYLPPPPV	0.675
ASGFLVIPLWVF	0.17
LLTAARAQLFAV	0.457
RGWGGGTWVKMG	0.113
LPLQPPPPVCLP	0.634
GGGGGGRWGRLC	0.189
FFICCPLLVVCS	0.064
SYLPSHVYIFLL	0.097
AFPSSVILMVFS	0.228
SNFFPVPLLLFR	0.647
FGARCSLSPLVT	0.639
WVIWFFVAACLR	0.239
FNLFWPVSAFVV	0.211
VYRRKLDRLLCI	0.171
CPVSFSFCLKVL	0.0628

---

- System: Saccharomyces cerevisiae
- experiment notes: protein stability index of tFT-peptide fusion (C-terminal peptide) (PSI (0-1 scale)); higher = more stable (slower turnover)
- test parameters: genetic background: wild type; temperature: 30 C

sequence input	protein stability index
ESRGKKPDTYTQ	0.707
QMTSRVPIGRLY	0.696
PFPPSAAPPLPF	0.593
SPCTSPARLKLP	0.559
RKGFMQRHDTLD	0.675
PTVGGGLDGVGR	0.669
CAGRQGRERGHT	0.695
SGEVGVGHWVGG	0.681
SISLLIWLFSSC	0.637
NAKGRKQTGKRK	0.695
EYTRGIRKTRRA	0.608
QRKYTLCVRPFP	0.697
YTRAGNDKIFWE	0.809
VFNSFPLRLFGL	0.693
SGCLGGGRGGWG	0.657
GRRGRWCAGQWG	0.674
RPTLPGGSPYYS	0.75
DGGSEIWGWDGT	0.743
GFLVPVALCPVV	0.557
LLLPSTPSPLLY	0.609
LPVPARPFPPSS	0.714
WLLGLRPTVSKE	0.756
CQQIKKNKKIKN	0.661
AVERGGRGRVVG	0.639
SHPSALPPISAG	0.734
VPPSPPRPPPPS	0.697
EEKEKKEKDGRR	0.728
PRPLLFPLIFTP	0.627
RVRGEHKLIGRA	0.652
TLESRPALVFFS	0.681
SEGRMHGLFLLN	0.544
SVIRTRYSSARM	0.662
RGRGRGGPLSGG	0.731
PRPPSPRAPPPH	0.631
FFILVFFSLLST	0.404
RPPPPASPPSAP	0.588
RAEGGDSGVAAL	0.703
YTPSGHKRRMYV	0.642
GLDDLMPGRVLW	0.666
QKKKKRKDKRTK	0.707
RGWGGGRKVSVG	0.652

---

- Tested on: Saccharomyces cerevisiae
- experiment notes: protein stability index of tFT-peptide fusion (C-terminal peptide) (PSI (0-1 scale)); higher = more stable (slower turnover)
- test parameters: genetic background: das1 deletion; temperature: 30 C

sequence input	protein stability index
LSIFGFDMFNRK [YMR1 C-terminal 12 aa]	0.706
NIGDFSPDLMDS [MSS11 C-terminal 12 aa]	0.684
KSEEAKKRTSLY [YBR124W C-terminal 12 aa]	0.694
VSLLLNSLALFF [YGL204C C-terminal 12 aa]	0.688
AKSLIHLFTSNQ [NRM1 C-terminal 12 aa]	0.694
FEHFHCVLDQIL [YDR203W C-terminal 12 aa]	0.706
LKDQIVETRTPI [ERG27 C-terminal 12 aa]	0.707
PNVSYIEEKLNQ [MAS1 C-terminal 12 aa]	0.702
FGRKLKKIFGRK [SEG2 C-terminal 12 aa]	0.675
HTRQGNITQTKY [YKL100W-A C-terminal 12 aa]	0.698
GKYFLKEEQDEI [YUR1 C-terminal 12 aa]	0.692
GGRNQYGGDDDY [DDR48 C-terminal 12 aa]	0.698
RARLIRKKKTIN [YER085C C-terminal 12 aa]	0.751
IVFTSVGAFNIL [YMR172C-A C-terminal 12 aa]	0.717
LARGGVASFTVK [RNH70 C-terminal 12 aa]	0.703
QDNSEVVDLTSD [NFI1 C-terminal 12 aa]	0.694
VLFLEDNGFFVF [MET3 C-terminal 12 aa]	0.765
NWVRYSSIYYQL [YDR194W-A C-terminal 12 aa]	0.695
IRDAKFCDKHED [BOR1 C-terminal 12 aa]	0.697
AIWKHGIVEEKI [TMA19 C-terminal 12 aa]	0.695
VKYSRIIPPDIR [SUM1 C-terminal 12 aa]	0.72
QLHLVLTLRGGN [RUB1 C-terminal 12 aa]	0.683
ANEALQHILDDS [INO2 C-terminal 12 aa]	0.688
LNDMVLELKENY [NNF1 C-terminal 12 aa]	0.698
NFVSQYRNDEIY [YOR381W-A C-terminal 12 aa]	0.688
AVNGSDGQHCQI [AVT2 C-terminal 12 aa]	0.687
IAIGFGVGITRE [BUD8 C-terminal 12 aa]	0.688
GRVHGEEDPTKK [HSP12 C-terminal 12 aa]	0.707
GKVAKYIFDNIC [BNA7 C-terminal 12 aa]	0.696
SKVNSTRLVSRK [KAR3 C-terminal 12 aa]	0.691
VIASDESSHLSY [YHR127W C-terminal 12 aa]	0.709
DGPKFTFKRRKG [XRS2 C-terminal 12 aa]	0.713
ASNGSIFQFSSP [REC104 C-terminal 12 aa]	0.692
FKELLGYTLVSA [VSB1 C-terminal 12 aa]	0.356
GPLLDYLSSDED [CWC2 C-terminal 12 aa]	0.714
AQLVSLVRNQKH [YLR198C C-terminal 12 aa]	0.717
AFTTYRAFVEPN [PMI40 C-terminal 12 aa]	0.72
WSPLHAAKRHRI [MRPL51 C-terminal 12 aa]	0.692
IPTSFFFFNSIV [YKL123W C-terminal 12 aa]	0.734
EYNLDTFIKTLR [MOT1 C-terminal 12 aa]	0.753
PVHLEAIDLIDC [HSP150 C-terminal 12 aa]	0.709
GATDTSCYKERG [MRPL27 C-terminal 12 aa]	0.695
TFTLAVTPYPAF [YLL066W-B C-terminal 12 aa]	0.715
LHTEREKKKKKF [YKR040C C-terminal 12 aa]	0.725
GLSDEEDSSEED [RRT14 C-terminal 12 aa]	0.679
DLEMEVIAVEKN [MMF1 C-terminal 12 aa]	0.681
SVYQPFFALCGL [YDR355C C-terminal 12 aa]	0.676
ESTGHVDFGQNR [OTU1 C-terminal 12 aa]	0.7
ILILFTSINQRG [YOR366W C-terminal 12 aa]	0.589

---

Recorded protein stability index by entry
- System: Saccharomyces cerevisiae
- experiment notes: protein stability index of tFT-peptide fusion (C-terminal peptide) (PSI (0-1 scale)); higher = more stable (slower turnover)
- test parameters: genetic background: wild type; temperature: 30 C
outcome measure: protein stability index

sequence input	numeric result
SFFFSFFPYFFC	0.442
APPPPHPRTPKP	0.693
AVGFVVHNSLKK	0.739
AAIFDSIRKDLR	0.69
AHPPPSPPFPRH	0.658
KAEKMRARQKED	0.657
VGRERGRAACGE	0.662
MVELWQPASVFS	0.663
IKNIKKKKSKTE	0.702
SLFFFLFSPSCL	0.691
PERWFPSTPSLP	0.702
IRLSCGRVGGVV	0.648
PAYLMDRGYIMT	0.613
PVTRRDVDLPPP	0.706
GTPPRSGLPLCT	0.711
LRLLCVSGSSVR	0.638
CSCPEDGILCIF	0.62
PSGPSTVLPSPL	0.687
TSPVPPSTPAPP	0.669
ASRYPVPLQPHH	0.698
TQLEHQRESKSI	0.672
ACPDARNAGTQR	0.708
LPPASHLPYLVL	0.717
QGSAGRHVRTNL	0.701
SFVGCWFVLLVR	0.179
ASCLSPPSPFPR	0.653
PSCLLVAPRFSS	0.755
RKTRKKNRIRGI	0.686
DRLLLSPSPTPP	0.739
RQGGTMVRLLGY	0.651
HKHDAVIIGREC	0.702
YDVGSKAVLTLE	0.566
VRVSPDVYGSFM	0.59
PFATARLFPLPP	0.804
GEGVPVWNQCVE	0.658
RAGVRWGGGGGG	0.67
PPQRNFPARPTP	0.699
SVILRMIGQKIK	0.596
ADRVHLNGLEML	0.747
GVGGGSRGVCLG	0.638
PFPSPPSPRDAS	0.688

Where these numbers come from: the supplement of paper PMC10724198
